I'd appreciate it if you could supply cytotoxicity at 70.5 h values for the items below.
Assay: Human HepG2 cell viability assay in 384 well format
Format: toxicity, cell-based
Design: dose 125 nL, time 70.5 hour; concentration not given beside the values
Details: HepG2 cells, read-out: Inhibition
Numbers only, in %.

Solved entries:
molecule	u	assayResult
CCNC(=O)CCC(=O)NCC1(O)CCC(C(C)(C)C)CC1 (stereo unspecified)	%	-2.55
CC(NC(=O)NCC1(c2ccc(F)cc2)CCCC1)c1nncn1C (stereo unspecified)	%	-3.48
c1ccc(NCc2ccc(Cn3ccnc3)cc2)nc1	%	41.7

Hello, I would appreciate it if you could give cytotoxicity at 70.5 h for each entry below.
1. O=C1CC(c2ccc(C(=O)O)cc2)c2ncn(-c3cccc(F)c3)c2N1 (stereo unspecified)
2. Cc1nn(-c2ccccc2)c(C)c1CNC(=O)NC1CC(=O)N(C)C1 (stereo unspecified)
3. CN(c1c(F)cccc1F)S(=O)(=O)c1cc2c(c(C(=O)O)c1)OCCO2

[A]
1: -24.3; 2: -1.18; 3: 9.94
